Ref: paper PMC10895674

Assay: Pharmacokinetics IV and PO
Parameters: species or system Rat
Conditions: in vivo; Rat PO, dose 20 mg/kg
observed_property: half-life
# include the unit after the value

q: Could you share which half-life value was measured for CCN(c1cc(-c2cccc(N(C)C(=O)c3cc(C(C)C)c(O)cc3O)c2)cc(C(=O)NCc2c(C)cc(C)[nH]c2=O)c1C)C1CCOCC1 ?
a: 1.8 h

* * *

Listed compounds paired with reported IC50
Target: EZH2 (Homo sapiens)
Sequence (Q15910 whole entry): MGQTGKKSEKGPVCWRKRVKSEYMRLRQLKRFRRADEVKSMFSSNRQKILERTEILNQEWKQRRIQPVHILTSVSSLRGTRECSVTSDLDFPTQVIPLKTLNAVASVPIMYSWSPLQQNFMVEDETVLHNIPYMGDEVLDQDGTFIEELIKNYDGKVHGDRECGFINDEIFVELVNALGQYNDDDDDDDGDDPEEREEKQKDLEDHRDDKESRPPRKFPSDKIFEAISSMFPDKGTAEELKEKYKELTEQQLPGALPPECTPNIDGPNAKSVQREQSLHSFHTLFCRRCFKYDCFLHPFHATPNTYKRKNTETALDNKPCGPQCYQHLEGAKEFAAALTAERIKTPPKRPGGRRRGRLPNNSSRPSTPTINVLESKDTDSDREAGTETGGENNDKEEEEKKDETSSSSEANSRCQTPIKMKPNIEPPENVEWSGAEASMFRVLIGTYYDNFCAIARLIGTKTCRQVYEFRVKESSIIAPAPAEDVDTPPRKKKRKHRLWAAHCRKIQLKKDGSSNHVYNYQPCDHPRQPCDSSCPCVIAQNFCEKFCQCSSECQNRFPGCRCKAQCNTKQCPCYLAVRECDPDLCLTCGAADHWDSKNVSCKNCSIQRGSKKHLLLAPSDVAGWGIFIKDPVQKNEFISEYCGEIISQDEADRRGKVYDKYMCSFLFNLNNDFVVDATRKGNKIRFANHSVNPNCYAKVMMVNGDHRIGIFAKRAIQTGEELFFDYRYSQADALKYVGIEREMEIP
Sequence (O75530 whole entry partner): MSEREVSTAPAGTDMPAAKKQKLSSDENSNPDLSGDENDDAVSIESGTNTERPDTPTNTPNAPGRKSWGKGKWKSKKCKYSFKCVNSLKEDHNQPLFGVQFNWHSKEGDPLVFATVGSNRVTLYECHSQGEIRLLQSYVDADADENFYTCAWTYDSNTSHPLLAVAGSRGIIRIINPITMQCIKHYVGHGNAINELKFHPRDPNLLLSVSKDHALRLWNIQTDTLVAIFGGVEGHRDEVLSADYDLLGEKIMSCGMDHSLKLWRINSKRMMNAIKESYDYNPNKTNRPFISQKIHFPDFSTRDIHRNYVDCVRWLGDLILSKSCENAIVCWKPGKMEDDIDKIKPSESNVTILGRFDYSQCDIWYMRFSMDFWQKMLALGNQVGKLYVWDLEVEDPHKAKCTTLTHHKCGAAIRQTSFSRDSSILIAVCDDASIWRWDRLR
Sequence (Q15022 whole entry partner): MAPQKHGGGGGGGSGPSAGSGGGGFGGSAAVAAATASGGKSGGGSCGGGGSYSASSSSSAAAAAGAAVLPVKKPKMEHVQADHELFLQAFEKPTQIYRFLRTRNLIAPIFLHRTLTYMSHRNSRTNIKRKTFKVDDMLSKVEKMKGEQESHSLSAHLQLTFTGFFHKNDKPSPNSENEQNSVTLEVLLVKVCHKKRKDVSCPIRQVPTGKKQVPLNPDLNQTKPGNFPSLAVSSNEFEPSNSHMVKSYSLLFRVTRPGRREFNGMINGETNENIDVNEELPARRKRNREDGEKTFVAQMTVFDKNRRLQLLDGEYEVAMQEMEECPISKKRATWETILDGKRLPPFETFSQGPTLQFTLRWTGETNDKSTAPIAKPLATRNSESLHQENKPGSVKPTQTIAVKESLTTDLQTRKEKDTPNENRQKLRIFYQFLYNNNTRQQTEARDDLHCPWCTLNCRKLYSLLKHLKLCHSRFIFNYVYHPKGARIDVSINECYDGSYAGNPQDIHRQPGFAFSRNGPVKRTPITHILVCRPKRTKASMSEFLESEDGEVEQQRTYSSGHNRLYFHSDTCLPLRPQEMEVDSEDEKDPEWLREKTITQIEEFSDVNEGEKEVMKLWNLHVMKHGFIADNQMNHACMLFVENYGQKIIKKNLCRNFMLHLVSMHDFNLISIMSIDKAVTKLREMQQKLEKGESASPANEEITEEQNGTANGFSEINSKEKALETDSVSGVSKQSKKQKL
Sequence (Q09028 whole entry partner): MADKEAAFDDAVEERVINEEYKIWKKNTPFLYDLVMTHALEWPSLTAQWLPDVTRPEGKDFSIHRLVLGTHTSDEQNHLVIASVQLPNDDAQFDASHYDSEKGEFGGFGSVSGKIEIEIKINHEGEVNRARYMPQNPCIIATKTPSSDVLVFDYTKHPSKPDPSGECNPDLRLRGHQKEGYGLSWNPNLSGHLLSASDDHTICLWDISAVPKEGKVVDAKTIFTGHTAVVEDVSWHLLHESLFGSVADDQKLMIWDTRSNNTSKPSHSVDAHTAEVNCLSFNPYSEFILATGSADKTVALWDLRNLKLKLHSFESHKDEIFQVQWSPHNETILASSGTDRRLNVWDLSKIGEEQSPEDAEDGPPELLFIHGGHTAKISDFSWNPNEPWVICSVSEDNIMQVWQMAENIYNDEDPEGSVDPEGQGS
Sequence (Q6ZN18 whole entry partner): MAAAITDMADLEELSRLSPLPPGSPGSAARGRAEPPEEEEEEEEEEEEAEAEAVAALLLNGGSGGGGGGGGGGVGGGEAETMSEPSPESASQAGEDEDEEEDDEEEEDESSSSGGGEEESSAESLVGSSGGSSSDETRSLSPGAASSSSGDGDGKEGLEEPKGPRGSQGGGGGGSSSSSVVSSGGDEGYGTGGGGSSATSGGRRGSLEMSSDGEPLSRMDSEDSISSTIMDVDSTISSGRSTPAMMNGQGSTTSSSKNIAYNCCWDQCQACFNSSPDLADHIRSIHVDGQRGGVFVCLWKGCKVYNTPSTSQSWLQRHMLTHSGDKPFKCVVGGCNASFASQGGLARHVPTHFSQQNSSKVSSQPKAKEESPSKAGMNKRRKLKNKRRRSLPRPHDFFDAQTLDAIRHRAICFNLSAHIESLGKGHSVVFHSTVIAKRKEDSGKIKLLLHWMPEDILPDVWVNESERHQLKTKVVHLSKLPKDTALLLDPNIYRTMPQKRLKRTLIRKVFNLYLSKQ
Enter your answer as a number in nM; do not include the unit.

As a guide, the following entries are already answered.
q: API: value(readout= IC50, system= EZH2 (Homo sapiens), query= CCN(C(=O)c1cc(C(C)C)c(O)cc1O)c1ccc(-c2cc(C(=O)NCc3c(C)cc(C)[nH]c3=O)c(C)c(N(CC)C3CCOCC3)c2)cc1 )
a: 7.35

q: Quick one: CCN(C(=O)c1cc(C(C)C)c(O)cc1O)c1cccc(-c2cc(C(=O)NCc3c(C)cc(C)[nH]c3=O)c(C)c(N(CC)C3CCOCC3)c2)c1
a: 36.6

q: Quick one: CCN(c1cc(-c2ccc(NC(=O)c3cc(C(C)C)c(O)cc3O)cc2)cc(C(=O)NCc2c(C)cc(C)[nH]c2=O)c1C)C1CCOCC1
a: 6.14

Turning now to a further record.
q: API: value(readout= IC50, system= EZH2 (Homo sapiens), query= CCN(c1cc(-c2cccc(N(Cc3ccccc3)C(=O)c3cc(C(C)C)c(O)cc3O)c2)cc(C(=O)NCc2c(C)cc(C)[nH]c2=O)c1C)C1CCOCC1 )
a: 641
